Quick reference: IC50 of the listed items.
Tested on: HSCs
test.description: MTT cell viability assay, HSCs
Assay type: cell-based
details: 72 h, mean ± SD of three experiments
Please reply with the bare figure in µM and do not write the unit itself.

// solved cases for IC50 follow
>>> number("CC1(C)CCC2(C(=O)O)CCC3(C)C(=CCC4C5(C)CCC(OC(=O)C(N)Cc6ccccc6)C(C)(C)C5CCC43C)C2C1 (centres unmarked)")
14.8
>>> number("CC(N)C(=O)OC1CCC2(C)C(CCC3(C)C2CC=C2C4CC(C)(C)CCC4(C(=O)O)CCC23C)C1(C)C (centres unmarked)")
9.92
>>> number("CCC(C)C(N)C(=O)OC1CCC2(C)C(CCC3(C)C2CC=C2C4CC(C)(C)CCC4(C(=O)O)CCC23C)C1(C)C (centres unmarked)")
24.5

Enquiry: # input molecule: CC1(C)CCC2(C(=O)O)CCC3(C)C(=CCC4C5(C)CCC(OC(=O)CN)C(C)(C)C5CCC43C)C2C1 (centres unmarked) ; wanted: its IC50
Return: 13.6

Enquiry: # input molecule: CC(C)C(N)C(=O)OC1CCC2(C)C(CCC3(C)C2CC=C2C4CC(C)(C)CCC4(C(=O)O)CCC23C)C1(C)C (centres unmarked) ; wanted: its IC50
Return: 19.6

Enquiry: # input molecule: CC1(C)CCC2(C(=O)O)CCC3(C)C(=CCC4C5(C)CCC(OC(=O)C(N)CCCCN)C(C)(C)C5CCC43C)C2C1 (centres unmarked) ; wanted: its IC50
Return: 3.46

Enquiry: # input molecule: CC1(C)CCC2(C(=O)O)CCC3(C)C(=CCC4C5(C)CCC(OC(=O)C6CCCN6)C(C)(C)C5CCC43C)C2C1 (centres unmarked) ; wanted: its IC50
Return: 15.6

Enquiry: # input molecule: CNCC(=O)OC1CCC2(C)C(CCC3(C)C2CC=C2C4CC(C)(C)CCC4(C(=O)O)CCC23C)C1(C)C (centres unmarked) ; wanted: its IC50
Return: 7.3
